inhibition at 30 µg/mL for assorted compounds
# Tested on: HepG2
# Run description: Inhibition of cell proliferation of human HepG2 cells at 30 ug/mL after 48 hrs by Sulforhodamine B assay
# Format: functional
# Assay setup: HepG2, 48 h

{"Compound": "COc1ccc(C(=O)N2C[C@@H]3CCCN4CCC[C@@H]([C@H]34)[C@@H]2CCCC(=O)O)cc1", "Result operator": "<", "inhibition at 30 µg/mL, %": 5}
{"Compound": "O=C(O)CCC[C@@H]1NC[C@@H]2CCCN3CCC[C@H]1[C@H]23", "Result operator": "=", "inhibition at 30 µg/mL, %": 10.3}
{"Compound": "O=C(O)CCC[C@H]1[C@H]2CCCN3CCC[C@@H](CN1C(=O)c1ccc4c(c1)OCO4)[C@@H]23", "Result operator": "=", "inhibition at 30 µg/mL, %": 11.4}
{"Compound": "CC(Br)C(=O)N1C[C@@H]2CCCN3CCC[C@@H]([C@H]23)[C@@H]1CCCC(=O)O (some centres not stated)", "Result operator": "=", "inhibition at 30 µg/mL, %": 15.6}
{"Compound": "COc1ccc(C(=O)N2C[C@@H]3CCCN4CCC[C@@H]([C@H]34)[C@@H]2CCCC(=O)O)cc1[N+](=O)[O-]", "Result operator": "<", "inhibition at 30 µg/mL, %": 5}
{"Compound": "Cc1ccc(S(=O)(=O)N2C[C@@H]3CCCN4CCC[C@@H]([C@H]34)[C@@H]2CCCC(=O)O)cc1", "Result operator": "=", "inhibition at 30 µg/mL, %": 13.4}
{"Compound": "CCOC(=O)N1C[C@@H]2CCCN3CCC[C@@H]([C@H]23)[C@@H]1CCCC(=O)O", "Result operator": "=", "inhibition at 30 µg/mL, %": 19.9}
